B1: library; a variant is named by its letters at N, in order (parent)
chain: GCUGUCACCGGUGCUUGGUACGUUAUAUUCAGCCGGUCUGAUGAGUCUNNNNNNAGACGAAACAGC

Variants of: B1
experimentSummary: normalized RNA/DNA level with ligand (relative to sTRSVctl = 100) (log10 (% of sTRSVctl)); HEK293T overexpressing SLC46A1; ligand concentration (+) RNA-Seq: 6 mM; higher = less ribozyme self-cleavage, higher mRNA level
experimentalConditions: with (6R,S)-folinic acid; ligand present: yes
endpoint: normalized RNA/DNA level with ligand (log10)

>>> testresult("GUGGAA")
2.01
>>> testresult("UCAGGG")
1.99
>>> testresult("CGAUCG")
2.05
>>> testresult("CCUCCU")
2.04
>>> testresult("GGCCCA")
2.03
